test system: NCI-H647; experiment: relative viability (nuclei count vs DMSO), 5 days (fraction); higher = more cells survive; details: first compound 0.253 µM
PROPERTY: relative viability

# example entries with known answers
COc1nc(C)cnc1NS(=O)(=O)c1cccnc1-c1ccc(-c2nnco2)cc1 [Zibotentan] + Cc1nc(NC(=O)N2CCC[C@H]2C(N)=O)sc1-c1ccnc(C(C)(C)C(F)(F)F)c1 [Alpelisib] (partner 2 µM) | 0.92
O=c1cc(-c2cccc3c2Sc2ccccc2S3)oc(N2CCOCC2)c1 + O=C(c1cc(Cc2n[nH]c(=O)c3ccccc23)ccc1F)N1CCN(C(=O)C2CC2)CC1 [Olaparib] (partner 8 µM) | 0.851
O=c1cc(-c2cccc3c2Sc2ccccc2S3)oc(N2CCOCC2)c1 + CS(=O)(=O)CCNCc1ccc(-c2ccc3ncnc(Nc4ccc(OCc5cccc(F)c5)c(Cl)c4)c3c2)o1 [Lapatinib] (partner 2 µM) | 1.21

With those in mind, consider the next compound.
Asked: Which relative viability reading was recorded for the compound O=c1cc(-c2cccc3c2Sc2ccccc2S3)oc(N2CCOCC2)c1 + O=C(CCCCCCC(=O)Nc1ccccc1)NO [Vorinostat] (partner 1 µM) ?
Given back: 0.691

----------
tested on: EKVX; experiment: relative viability (nuclei count vs DMSO), 5 days (fraction); higher = more cells survive; conditions: first compound 0.08 µM
PROPERTY: relative viability
One number for each entry.

Quick request: relative viability for each listed item, please.
1. COc1nc(C)cnc1NS(=O)(=O)c1cccnc1-c1ccc(-c2nnco2)cc1 [Zibotentan] + NC(=O)Nc1cc(-c2cccc(F)c2)sc1C(=O)N[C@H]1CCCNC1 [AZD7762] (partner 0.2 µM)
2. COc1nc(C)cnc1NS(=O)(=O)c1cccnc1-c1ccc(-c2nnco2)cc1 [Zibotentan] + CCNC(=O)c1noc(-c2cc(C(C)C)c(O)cc2O)c1-c1ccc(CN2CCOCC2)cc1 [Luminespib] (partner 0.01 µM)
3. COc1nc(C)cnc1NS(=O)(=O)c1cccnc1-c1ccc(-c2nnco2)cc1 [Zibotentan] + CS(=O)(=O)CCNCc1ccc(-c2ccc3ncnc(Nc4ccc(OCc5cccc(F)c5)c(Cl)c4)c3c2)o1 [Lapatinib] (partner 2 µM)
4. O=c1cc(-c2cccc3c2Sc2ccccc2S3)oc(N2CCOCC2)c1 + CC(=O)c1c(C)c2cnc(Nc3ccc(N4CCNCC4)cn3)nc2n(C2CCCC2)c1=O [Palbociclib] (partner 0.5 µM)
5. COc1nc(C)cnc1NS(=O)(=O)c1cccnc1-c1ccc(-c2nnco2)cc1 [Zibotentan] + Nc1ncn([C@H]2C[C@H](O)[C@@H](CO)O2)c(=O)n1 [Decitabine] (partner 2 µM)

Given back:
1. 0.742
2. 0.762
3. 0.184
4. 0.582
5. 0.325

----------
tested on: Calu-6; assay: relative viability (nuclei count vs DMSO), 5 days (fraction); higher = more cells survive; settings: first compound 0.03162 µM
Please go through the items and note down their relative viability.
Give bare numbers.

O=c1cc(N2CCOCC2)oc2c(-c3cccc4c3sc3ccccc34)cccc12 + C[C@@H](Oc1cc(-c2cnn(C3CCNCC3)c2)cnc1N)c1c(Cl)ccc(F)c1Cl [Crizotinib] (partner 1 µM) | 0.857
O=c1cc(N2CCOCC2)oc2c(-c3cccc4c3sc3ccccc34)cccc12 + CS(=O)(=O)CCNCc1ccc(-c2ccc3ncnc(Nc4ccc(OCc5cccc(F)c5)c(Cl)c4)c3c2)o1 [Lapatinib] (partner 2 µM) | 1.11

With those in mind, consider the next compound.
Asked: Which relative viability reading was recorded for the compound O=c1cc(N2CCOCC2)oc2c(-c3cccc4c3sc3ccccc34)cccc12 + CS(=O)(=O)N1CCN(Cc2cc3nc(-c4cccc5[nH]ncc45)nc(N4CCOCC4)c3s2)CC1 [Pictilisib] (partner 1 µM) ?
Given back: 0.917

----------
system: NCI-H1651; assay: relative viability (nuclei count vs DMSO), 5 days (fraction); higher = more cells survive; conditions: first compound 0.8 µM
Please go through the items and note down their relative viability.

# example entries with known answers
COc1nc(C)cnc1NS(=O)(=O)c1cccnc1-c1ccc(-c2nnco2)cc1 [Zibotentan] + Cc1cc(Nc2cc(N3CCN(C)CC3)nc(Sc3ccc(NC(=O)C4CC4)cc3)n2)n[nH]1 [Tozasertib] (partner 0.1 µM) | 0.767
COc1nc(C)cnc1NS(=O)(=O)c1cccnc1-c1ccc(-c2nnco2)cc1 [Zibotentan] + Cc1nc(NC(=O)N2CCC[C@H]2C(N)=O)sc1-c1ccnc(C(C)(C)C(F)(F)F)c1 [Alpelisib] (partner 2 µM) | 0.88
O=c1cc(-c2cccc3c2Sc2ccccc2S3)oc(N2CCOCC2)c1 + Cc1cc(Nc2cc(N3CCN(C)CC3)nc(Sc3ccc(NC(=O)C4CC4)cc3)n2)n[nH]1 [Tozasertib] (partner 0.1 µM) | 0.625

With those in mind, consider the next molecule.
Asked: API: value(readout= relative viability, system= NCI-H1651, query= O=c1cc(-c2cccc3c2Sc2ccccc2S3)oc(N2CCOCC2)c1 + CC1(C)CCC(c2ccc(Cl)cc2)=C(CN2CCN(c3ccc(C(=O)NS(=O)(=O)c4ccc(N[C@H](CCN5CCOCC5)CSc5ccccc5)c(S(=O)(=O)C(F)(F)F)c4)cc3)CC2)C1 [Navitoclax] (partner 0.5 µM) )
Given back: 0.852

----------
Please go through the items and note down their relative viability.
tested on: NCI-H2023; assay: relative viability (nuclei count vs DMSO), 5 days (fraction); higher = more cells survive; details: first compound 0.01 µM
Give bare numbers.

# example entries with known answers
O=c1cc(N2CCOCC2)oc2c(-c3cccc4c3sc3ccccc34)cccc12 + O=C(c1cc(Cc2n[nH]c(=O)c3ccccc23)ccc1F)N1CCN(C(=O)C2CC2)CC1 [Olaparib] (partner 8 µM) | 0.514
O=c1cc(N2CCOCC2)oc2c(-c3cccc4c3sc3ccccc34)cccc12 + COc1cc2c(Oc3ccc(NC(=O)C4(C(=O)Nc5ccc(F)cc5)CC4)cc3F)ccnc2cc1OCCCN1CCOCC1 [Foretinib] (partner 0.25 µM) | 0.719
O=c1cc(N2CCOCC2)oc2c(-c3cccc4c3sc3ccccc34)cccc12 + CC(=O)Nc1cccc(-n2c(=O)n(C3CC3)c(=O)c3c(Nc4ccc(I)cc4F)n(C)c(=O)c(C)c32)c1 [Trametinib] (partner 0.02 µM) | 0.676

Asked: Which relative viability reading was recorded for the compound O=c1cc(N2CCOCC2)oc2c(-c3cccc4c3sc3ccccc34)cccc12 + CS(=O)(=O)CCNCc1ccc(-c2ccc3ncnc(Nc4ccc(OCc5cccc(F)c5)c(Cl)c4)c3c2)o1 [Lapatinib] (partner 2 µM) ?
Given back: 0.88

----------
system: EKVX; assay: relative viability (nuclei count vs DMSO), 5 days (fraction); higher = more cells survive; settings: first compound 6.325 µM
Please go through the items and note down their relative viability.
Give bare numbers.

Quick request: relative viability for each listed item, please.
1. COCC1(CO)C(=O)C2CCN1CC2 (stereo not drawn) [PRIMA-1MET] + Nc1nc2[nH]cc(CCc3ccc(C(=O)N[C@@H](CCC(=O)O)C(=O)O)cc3)c2c(=O)[nH]1 [Pemetrexed] (partner 0.2 µM)
2. COCC1(CO)C(=O)C2CCN1CC2 (stereo not drawn) [PRIMA-1MET] + COc1cc2c(Oc3ccc(NC(=O)C4(C(=O)Nc5ccc(F)cc5)CC4)cc3F)ccnc2cc1OCCCN1CCOCC1 [Foretinib] (partner 0.25 µM)

Given back:
1. 0.447
2. 1.1

Quick request: relative viability for each listed item, please.
1. COCC1(CO)C(=O)C2CCN1CC2 (stereo not drawn) [PRIMA-1MET] + CC(=O)c1c(C)c2cnc(Nc3ccc(N4CCNCC4)cn3)nc2n(C2CCCC2)c1=O [Palbociclib] (partner 0.5 µM)
2. COCC1(CO)C(=O)C2CCN1CC2 (stereo not drawn) [PRIMA-1MET] + CS(=O)(=O)N1CCN(Cc2cc3nc(-c4cccc5[nH]ncc45)nc(N4CCOCC4)c3s2)CC1 [Pictilisib] (partner 1 µM)

Given back:
1. 0.368
2. 0.489

Quick request: relative viability for each listed item, please.
1. COCC1(CO)C(=O)C2CCN1CC2 (stereo not drawn) [PRIMA-1MET] + NC(=O)Nc1cc(-c2cccc(F)c2)sc1C(=O)N[C@H]1CCCNC1 [AZD7762] (partner 0.2 µM)
2. COCC1(CO)C(=O)C2CCN1CC2 (stereo not drawn) [PRIMA-1MET] + Nc1ncn([C@H]2C[C@H](O)[C@@H](CO)O2)c(=O)n1 [Decitabine] (partner 2 µM)
3. COCC1(CO)C(=O)C2CCN1CC2 (stereo not drawn) [PRIMA-1MET] + C[C@]1(O)C[C@@H](c2nc(-c3ccc4ccc(-c5ccccc5)nc4c3)c3c(N)nccn32)C1 [Linsitinib] (partner 1 µM)

Given back:
1. 0.748
2. 0.336
3. 1.03

Asked: Which relative viability reading was recorded for the compound COCC1(CO)C(=O)C2CCN1CC2 (stereo not drawn) [PRIMA-1MET] + CC1(C)CCC(c2ccc(Cl)cc2)=C(CN2CCN(c3ccc(C(=O)NS(=O)(=O)c4ccc(N[C@H](CCN5CCOCC5)CSc5ccccc5)c(S(=O)(=O)C(F)(F)F)c4)cc3)CC2)C1 [Navitoclax] (partner 0.5 µM) ?
Given back: 0.938
